Test: Inhibitory activity against zinc-dependent Glutamate Carboxypeptidase G
Measured metric: pKi
# log scale: pKi equals minus log10 of the concentration in mol/L

O=C(O)CC[C@H](NP(O)(=S)c1ccccc1)C(=O)O (some centres not stated) ... 5.49

# input for lookup
Kindly note the recorded pKi for CCCCP(O)(=S)N[C@@H](CCC(=O)O)C(=O)O (some centres not stated) , which is 6.58
